# PROTOCOL DETAILS: Phase I dose escalation population pharmacokinetics in patients with hematologic malignancies (plasma UPLC-MS/MS, Monolix PPK model)
# Format: in vivo, human
# TEST CONTEXT: both sexes, human, plasma, po, 80 mg, 80 mg QD oral, n = 11, derived from EBE; read-out: AUC0-24 hr [mean +/- SD]
MEASUREMENT TYPE: AUC(0-t) (ng·h/mL)
Just the number please, in ng·h/mL, no unit attached.

Prompt: What AUC(0-t) value was documented for this compound, Cc1sc2c(c1C)C(c1ccc(Cl)cc1)=N[C@@H](CC(=O)Nc1ccc(O)cc1)c1nnc(C)n1-2 [Compound of Formula (1)] ?
Completion: 12500

====

# PROTOCOL DETAILS: Phase I dose escalation population pharmacokinetics in patients with hematologic malignancies (plasma UPLC-MS/MS, Monolix PPK model)
# Assay type: in vivo, human
# TEST CONTEXT: human, plasma, po, 160 mg, 160 mg QD oral, n = 5, derived from EBE; read-out: T1/2 [mean +/- SD] (converted)
MEASUREMENT TYPE: half-life (h)
Just the number please, in h, no unit attached.

Prompt: What half-life value was documented for this compound, Cc1sc2c(c1C)C(c1ccc(Cl)cc1)=N[C@@H](CC(=O)Nc1ccc(O)cc1)c1nnc(C)n1-2 ?
Completion: 5.48

====

# PROTOCOL DETAILS: Phase I dose escalation population pharmacokinetics in patients with hematologic malignancies (plasma UPLC-MS/MS, Monolix PPK model)
# Assay type: in vivo, human
# TEST CONTEXT: both sexes, human, plasma, oral, all patients; read-out: Mean elimination half-life (converted)
MEASUREMENT TYPE: half-life (h)
Just the number please, in h, no unit attached.

Prompt: What half-life value was documented for this compound, Cc1sc2c(c1C)C(c1ccc(Cl)cc1)=N[C@@H](CC(=O)Nc1ccc(O)cc1)c1nnc(C)n1-2 [Compound of Formula (1)] ?
Completion: 5.8

====

# PROTOCOL DETAILS: Phase I dose escalation population pharmacokinetics in patients with hematologic malignancies (plasma UPLC-MS/MS, Monolix PPK model)
# Assay type: in vivo, human
# TEST CONTEXT: human, plasma, po, 120 mg, 120 mg QD oral, n = 30, derived from EBE; read-out: T1/2 [mean +/- SD] (converted)
MEASUREMENT TYPE: half-life (h)
Just the number please, in h, no unit attached.

Prompt: What half-life value was documented for this molecule, Cc1sc2c(c1C)C(c1ccc(Cl)cc1)=N[C@@H](CC(=O)Nc1ccc(O)cc1)c1nnc(C)n1-2 ?
Completion: 5.91

====

# PROTOCOL DETAILS: Phase I dose escalation population pharmacokinetics in patients with hematologic malignancies (plasma UPLC-MS/MS, Monolix PPK model)
# Type: in vivo, human
# TEST CONTEXT: both sexes, human, plasma; 160 mg QD oral, n = 5, derived from EBE; read-out: Cmax [mean +/- SD]
MEASUREMENT TYPE: Cmax (ng/mL)
Just the number please, in ng/mL, no unit attached.

Prompt: What Cmax value was documented for this compound, Cc1sc2c(c1C)C(c1ccc(Cl)cc1)=N[C@@H](CC(=O)Nc1ccc(O)cc1)c1nnc(C)n1-2 ?
Completion: 1290

====

# PROTOCOL DETAILS: Phase I dose escalation population pharmacokinetics in patients with hematologic malignancies (plasma UPLC-MS/MS, Monolix PPK model)
# Type: in vivo, human
# TEST CONTEXT: human, plasma; 40 mg QD oral, n = 8, derived from EBE; read-out: Cmax [mean +/- SD]
MEASUREMENT TYPE: Cmax (ng/mL)
Just the number please, in ng/mL, no unit attached.

Prompt: What Cmax value was documented for this molecule, Cc1sc2c(c1C)C(c1ccc(Cl)cc1)=N[C@@H](CC(=O)Nc1ccc(O)cc1)c1nnc(C)n1-2 ?
Completion: 627

====

# PROTOCOL DETAILS: Phase I dose escalation population pharmacokinetics in patients with hematologic malignancies (plasma UPLC-MS/MS, Monolix PPK model)
# Assay type: in vivo, human
# TEST CONTEXT: both sexes, human, plasma, po, 160 mg, 160 mg QD oral, n = 5, derived from EBE; read-out: AUC0-24 hr [mean +/- SD]
MEASUREMENT TYPE: AUC(0-t)

Prompt: What AUC(0-t) value was documented for this molecule, Cc1sc2c(c1C)C(c1ccc(Cl)cc1)=N[C@@H](CC(=O)Nc1ccc(O)cc1)c1nnc(C)n1-2 [Compound of Formula (1)] ?
Completion: 13900 ng·h/mL

====

# PROTOCOL DETAILS: Phase I dose escalation population pharmacokinetics in patients with hematologic malignancies (plasma UPLC-MS/MS, Monolix PPK model)
# Format: in vivo, human
# TEST CONTEXT: both sexes, human, plasma; 80 mg QD oral, n = 11, derived from EBE; read-out: Cmax [mean +/- SD]
MEASUREMENT TYPE: Cmax (ng/mL)
Just the number please, in ng/mL, no unit attached.

Prompt: What Cmax value was documented for this compound, Cc1sc2c(c1C)C(c1ccc(Cl)cc1)=N[C@@H](CC(=O)Nc1ccc(O)cc1)c1nnc(C)n1-2 [Compound of Formula (1)] ?
Completion: 1150

====

# PROTOCOL DETAILS: Phase I dose escalation population pharmacokinetics in patients with hematologic malignancies (plasma UPLC-MS/MS, Monolix PPK model)
# Format: in vivo, human
# TEST CONTEXT: human, plasma, po, 10 mg, 10 mg QD oral, n = 8, derived from EBE; read-out: T1/2 [mean +/- SD] (converted)
MEASUREMENT TYPE: half-life (h)
Just the number please, in h, no unit attached.

Prompt: What half-life value was documented for this compound, Cc1sc2c(c1C)C(c1ccc(Cl)cc1)=N[C@@H](CC(=O)Nc1ccc(O)cc1)c1nnc(C)n1-2 ?
Completion: 5.84

====

# PROTOCOL DETAILS: Phase I dose escalation population pharmacokinetics in patients with hematologic malignancies (plasma UPLC-MS/MS, Monolix PPK model)
# Format: in vivo, human
# TEST CONTEXT: both sexes, human, plasma; 40 mg BID oral, n = 13, derived from EBE; read-out: Cmax [mean +/- SD]
MEASUREMENT TYPE: Cmax (ng/mL)
Just the number please, in ng/mL, no unit attached.

Prompt: What Cmax value was documented for this molecule, Cc1sc2c(c1C)C(c1ccc(Cl)cc1)=N[C@@H](CC(=O)Nc1ccc(O)cc1)c1nnc(C)n1-2 [Compound of Formula (1)] ?
Completion: 550

====

# PROTOCOL DETAILS: Phase I dose escalation population pharmacokinetics in patients with hematologic malignancies (plasma UPLC-MS/MS, Monolix PPK model)
# Assay type: in vivo, human
# TEST CONTEXT: human, plasma, po, 40 mg, 40 mg QD oral, n = 8, derived from EBE; read-out: T1/2 [mean +/- SD] (converted)
MEASUREMENT TYPE: half-life
# do not omit the unit; it follows the number

Prompt: What half-life value was documented for this compound, Cc1sc2c(c1C)C(c1ccc(Cl)cc1)=N[C@@H](CC(=O)Nc1ccc(O)cc1)c1nnc(C)n1-2 [Compound of Formula (1)] ?
Completion: 5.33 h

====

# PROTOCOL DETAILS: Phase I dose escalation population pharmacokinetics in patients with hematologic malignancies (plasma UPLC-MS/MS, Monolix PPK model)
# Assay type: in vivo, human
# TEST CONTEXT: both sexes, human, plasma, po, 10 mg, 10 mg QD oral, n = 8, derived from EBE; read-out: AUC0-24 hr [mean +/- SD]
MEASUREMENT TYPE: AUC(0-t)
# do not omit the unit; it follows the number

Prompt: What AUC(0-t) value was documented for this compound, Cc1sc2c(c1C)C(c1ccc(Cl)cc1)=N[C@@H](CC(=O)Nc1ccc(O)cc1)c1nnc(C)n1-2 ?
Completion: 1190 ng·h/mL

====

# PROTOCOL DETAILS: Phase I dose escalation population pharmacokinetics in patients with hematologic malignancies (plasma UPLC-MS/MS, Monolix PPK model)
# Assay type: in vivo, human
# TEST CONTEXT: both sexes, human, plasma, po, 20 mg, 20 mg QD oral, n = 6, derived from EBE; read-out: AUC0-24 hr [mean +/- SD]
MEASUREMENT TYPE: AUC(0-t) (ng·h/mL)
Just the number please, in ng·h/mL, no unit attached.

Prompt: What AUC(0-t) value was documented for this molecule, Cc1sc2c(c1C)C(c1ccc(Cl)cc1)=N[C@@H](CC(=O)Nc1ccc(O)cc1)c1nnc(C)n1-2 ?
Completion: 2930
